Data provenance: paper PMC4872087

assayed system: T1, His-JMJD2C(874–988) (murine, UniProt Q8VCD7 874-988)
T1 construct: JMJD2C (lysine demethylase), murine, amino acids 874-988, double Tudor domain; Modified pET15b with a minimal, non-cleavable hexahistidine tag; also called JMJD2C-Td; JMJD2C-TD; source: E. coli BL21(DE3) codon plus, purified (Talon resin, gel filtration)
T1 sequence (looked up): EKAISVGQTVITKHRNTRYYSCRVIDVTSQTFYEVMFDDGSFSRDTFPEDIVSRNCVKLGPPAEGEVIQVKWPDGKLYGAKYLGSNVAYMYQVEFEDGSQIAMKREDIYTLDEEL
assay: fluorescence polarisation; KD determination of the binding of FL-H3K4me3 to JMJD2C-Td; same optimization route as for Spindlin1
experimental setup: both partners purified
readout kind: pKd
The meaning of pKd here: minus log10 of the concentration in molar units.

Report pKd for ARTKQTARKSTGGK (trimethylated lysine at position 4; mixed isomers of 5-(and-6)-carboxyfluorescein coupled to K14 side chain, histone H3, N-terminal tail; also called fluorescent probe; fluorescein labeled peptide derived from histone H3; source: synthetic peptide, custom synthesized by Peptide Specialty Laboratories GmbH) [FL-H3K4me3]
4.84
